Where do these numbers come from? They come from the supplement of paper PMC6757056.

B1: library; a variant is named by its letters at N, in order (parent)
chain: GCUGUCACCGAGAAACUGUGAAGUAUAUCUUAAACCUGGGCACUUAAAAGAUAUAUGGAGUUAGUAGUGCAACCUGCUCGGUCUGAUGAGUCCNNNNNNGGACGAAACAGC

Variants of: B1
Assay: normalized RNA/DNA level without ligand (relative to sTRSVctl = 100) (log10 (% of sTRSVctl)); HEK293T; ligand: cyclic di-GMP (c-di-GMP-II aptamer); higher = less ribozyme self-cleavage, higher mRNA level
Details: reporter: mCherry (pCS4076), ligand present: no
Consider the following variants; for each one, report its normalized RNA/DNA level without ligand (log10).
Answers are plain numbers.

As a guide, the following entries are already answered.
{"columns": ["SEQUENCE CODE", "QUANTITATIVE RESULT"],
 "data": [
  ["GCUGUCACCGAGAAACUGUGAAGUAUAUCUUAAACCUGGGCACUUAAAAGAUAUAUGGAGUUAGUAGUGCAACCUGCUCGGUCUGAUGAGUCCUACCUCGGACGAAACAGC", 1.79],
  ["GCUGUCACCGAGAAACUGUGAAGUAUAUCUUAAACCUGGGCACUUAAAAGAUAUAUGGAGUUAGUAGUGCAACCUGCUCGGUCUGAUGAGUCCUGAGUUGGACGAAACAGC", 1.67],
  ["GCUGUCACCGAGAAACUGUGAAGUAUAUCUUAAACCUGGGCACUUAAAAGAUAUAUGGAGUUAGUAGUGCAACCUGCUCGGUCUGAUGAGUCCCGUCGAGGACGAAACAGC", 1.58],
  ["GCUGUCACCGAGAAACUGUGAAGUAUAUCUUAAACCUGGGCACUUAAAAGAUAUAUGGAGUUAGUAGUGCAACCUGCUCGGUCUGAUGAGUCCGAAGCCGGACGAAACAGC", 1.78],
  ["GCUGUCACCGAGAAACUGUGAAGUAUAUCUUAAACCUGGGCACUUAAAAGAUAUAUGGAGUUAGUAGUGCAACCUGCUCGGUCUGAUGAGUCCCUGGCUGGACGAAACAGC", 1.77],
  ["GCUGUCACCGAGAAACUGUGAAGUAUAUCUUAAACCUGGGCACUUAAAAGAUAUAUGGAGUUAGUAGUGCAACCUGCUCGGUCUGAUGAGUCCACUUUAGGACGAAACAGC", 1.59],
  ["GCUGUCACCGAGAAACUGUGAAGUAUAUCUUAAACCUGGGCACUUAAAAGAUAUAUGGAGUUAGUAGUGCAACCUGCUCGGUCUGAUGAGUCCCAGCUGGGACGAAACAGC", 1.77],
  ["GCUGUCACCGAGAAACUGUGAAGUAUAUCUUAAACCUGGGCACUUAAAAGAUAUAUGGAGUUAGUAGUGCAACCUGCUCGGUCUGAUGAGUCCGAACAGGGACGAAACAGC", 1.75]
]}

Hi! Can you tell me normalized RNA/DNA level without ligand (log10) for each of these variants?
1. GCUGUCACCGAGAAACUGUGAAGUAUAUCUUAAACCUGGGCACUUAAAAGAUAUAUGGAGUUAGUAGUGCAACCUGCUCGGUCUGAUGAGUCCCUUAAUGGACGAAACAGC
2. GCUGUCACCGAGAAACUGUGAAGUAUAUCUUAAACCUGGGCACUUAAAAGAUAUAUGGAGUUAGUAGUGCAACCUGCUCGGUCUGAUGAGUCCUUCUCCGGACGAAACAGC
3. GCUGUCACCGAGAAACUGUGAAGUAUAUCUUAAACCUGGGCACUUAAAAGAUAUAUGGAGUUAGUAGUGCAACCUGCUCGGUCUGAUGAGUCCCUGAUCGGACGAAACAGC
4. GCUGUCACCGAGAAACUGUGAAGUAUAUCUUAAACCUGGGCACUUAAAAGAUAUAUGGAGUUAGUAGUGCAACCUGCUCGGUCUGAUGAGUCCCCGAGUGGACGAAACAGC
5. GCUGUCACCGAGAAACUGUGAAGUAUAUCUUAAACCUGGGCACUUAAAAGAUAUAUGGAGUUAGUAGUGCAACCUGCUCGGUCUGAUGAGUCCAGAUCAGGACGAAACAGC
6. GCUGUCACCGAGAAACUGUGAAGUAUAUCUUAAACCUGGGCACUUAAAAGAUAUAUGGAGUUAGUAGUGCAACCUGCUCGGUCUGAUGAGUCCUAUGUCGGACGAAACAGC
7. GCUGUCACCGAGAAACUGUGAAGUAUAUCUUAAACCUGGGCACUUAAAAGAUAUAUGGAGUUAGUAGUGCAACCUGCUCGGUCUGAUGAGUCCUGACUAGGACGAAACAGC
8. GCUGUCACCGAGAAACUGUGAAGUAUAUCUUAAACCUGGGCACUUAAAAGAUAUAUGGAGUUAGUAGUGCAACCUGCUCGGUCUGAUGAGUCCCUCUCGGGACGAAACAGC

a:
[1.55, 1.83, 1.67, 1.63, 1.59, 1.73, 1.67, 1.89]

Hi! Can you tell me normalized RNA/DNA level without ligand (log10) for each of these variants?
1. GCUGUCACCGAGAAACUGUGAAGUAUAUCUUAAACCUGGGCACUUAAAAGAUAUAUGGAGUUAGUAGUGCAACCUGCUCGGUCUGAUGAGUCCGGCAAUGGACGAAACAGC
2. GCUGUCACCGAGAAACUGUGAAGUAUAUCUUAAACCUGGGCACUUAAAAGAUAUAUGGAGUUAGUAGUGCAACCUGCUCGGUCUGAUGAGUCCUCGCCGGGACGAAACAGC
3. GCUGUCACCGAGAAACUGUGAAGUAUAUCUUAAACCUGGGCACUUAAAAGAUAUAUGGAGUUAGUAGUGCAACCUGCUCGGUCUGAUGAGUCCCUUCGGGGACGAAACAGC
4. GCUGUCACCGAGAAACUGUGAAGUAUAUCUUAAACCUGGGCACUUAAAAGAUAUAUGGAGUUAGUAGUGCAACCUGCUCGGUCUGAUGAGUCCUGAUUGGGACGAAACAGC
5. GCUGUCACCGAGAAACUGUGAAGUAUAUCUUAAACCUGGGCACUUAAAAGAUAUAUGGAGUUAGUAGUGCAACCUGCUCGGUCUGAUGAGUCCAAAUUGGGACGAAACAGC

a:
1. 1.65
2. 1.81
3. 1.82
4. 1.72
5. 1.56

Hi! Can you tell me normalized RNA/DNA level without ligand (log10) for each of these variants?
1. GCUGUCACCGAGAAACUGUGAAGUAUAUCUUAAACCUGGGCACUUAAAAGAUAUAUGGAGUUAGUAGUGCAACCUGCUCGGUCUGAUGAGUCCAUCGGAGGACGAAACAGC
2. GCUGUCACCGAGAAACUGUGAAGUAUAUCUUAAACCUGGGCACUUAAAAGAUAUAUGGAGUUAGUAGUGCAACCUGCUCGGUCUGAUGAGUCCGAGGCAGGACGAAACAGC
3. GCUGUCACCGAGAAACUGUGAAGUAUAUCUUAAACCUGGGCACUUAAAAGAUAUAUGGAGUUAGUAGUGCAACCUGCUCGGUCUGAUGAGUCCACAUAGGGACGAAACAGC
4. GCUGUCACCGAGAAACUGUGAAGUAUAUCUUAAACCUGGGCACUUAAAAGAUAUAUGGAGUUAGUAGUGCAACCUGCUCGGUCUGAUGAGUCCUACGUCGGACGAAACAGC
5. GCUGUCACCGAGAAACUGUGAAGUAUAUCUUAAACCUGGGCACUUAAAAGAUAUAUGGAGUUAGUAGUGCAACCUGCUCGGUCUGAUGAGUCCUACAAUGGACGAAACAGC
6. GCUGUCACCGAGAAACUGUGAAGUAUAUCUUAAACCUGGGCACUUAAAAGAUAUAUGGAGUUAGUAGUGCAACCUGCUCGGUCUGAUGAGUCCGCCUGGGGACGAAACAGC
7. GCUGUCACCGAGAAACUGUGAAGUAUAUCUUAAACCUGGGCACUUAAAAGAUAUAUGGAGUUAGUAGUGCAACCUGCUCGGUCUGAUGAGUCCCAAUUUGGACGAAACAGC
8. GCUGUCACCGAGAAACUGUGAAGUAUAUCUUAAACCUGGGCACUUAAAAGAUAUAUGGAGUUAGUAGUGCAACCUGCUCGGUCUGAUGAGUCCGGCUUCGGACGAAACAGC

a:
[1.53, 1.81, 1.41, 1.69, 1.64, 1.78, 1.51, 1.75]

Hi! Can you tell me normalized RNA/DNA level without ligand (log10) for each of these variants?
1. GCUGUCACCGAGAAACUGUGAAGUAUAUCUUAAACCUGGGCACUUAAAAGAUAUAUGGAGUUAGUAGUGCAACCUGCUCGGUCUGAUGAGUCCGUUCCUGGACGAAACAGC
2. GCUGUCACCGAGAAACUGUGAAGUAUAUCUUAAACCUGGGCACUUAAAAGAUAUAUGGAGUUAGUAGUGCAACCUGCUCGGUCUGAUGAGUCCAUUCUAGGACGAAACAGC
3. GCUGUCACCGAGAAACUGUGAAGUAUAUCUUAAACCUGGGCACUUAAAAGAUAUAUGGAGUUAGUAGUGCAACCUGCUCGGUCUGAUGAGUCCUUAAAAGGACGAAACAGC
4. GCUGUCACCGAGAAACUGUGAAGUAUAUCUUAAACCUGGGCACUUAAAAGAUAUAUGGAGUUAGUAGUGCAACCUGCUCGGUCUGAUGAGUCCUAAUUGGGACGAAACAGC

a:
1. 1.76
2. 1.59
3. 1.65
4. 1.71
